The measured values listed here are drawn from patent US20160297884A1.

Entries and their measured T ½ follow.
# system-tested: T1, Human BCMA (human, UniProt Q02223 1-54, limits assumed)
# T1 construct: Soluble analyte in SPR; construct not described; also called huBCMA; B-cell maturation antigen
# T1 sequence (looked up): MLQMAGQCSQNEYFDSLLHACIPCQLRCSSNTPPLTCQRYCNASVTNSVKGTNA
# procedure-text: SPR, IgG immobilised, 25 C
Give a bare numeral; the unit min is implied.

binder | assay-value
L1.GDF/L3.PY/H3.AQ (antibody, V domains shown, IgG) VH: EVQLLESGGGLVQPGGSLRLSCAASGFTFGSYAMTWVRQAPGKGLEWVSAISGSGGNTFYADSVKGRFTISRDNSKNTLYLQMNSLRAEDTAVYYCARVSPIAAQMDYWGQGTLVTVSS VL: EIVLTQSPGTLSLSPGERATLSCRASQSVGDFYLAWYQQKPGQAPRLLIYGASSRATGIPDRFSGSGSGTDFTLTISRLEPEDFAVYYCQHYPYPPSFTFGQGTKVEIK | 0.86

Data request, read-out T ½, for L1.GDF/L3.NY/H3.AQ (antibody, V domains shown, IgG) VH: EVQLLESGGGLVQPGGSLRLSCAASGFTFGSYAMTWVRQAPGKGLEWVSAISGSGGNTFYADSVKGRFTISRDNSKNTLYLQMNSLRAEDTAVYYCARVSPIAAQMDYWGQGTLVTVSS VL: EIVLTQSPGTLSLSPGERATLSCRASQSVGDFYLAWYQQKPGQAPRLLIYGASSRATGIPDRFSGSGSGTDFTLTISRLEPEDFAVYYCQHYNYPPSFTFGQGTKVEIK 16
